Data origin, for the record: a compilation of properties of binary mixtures (doi:10.1016/j.molliq.2019.111099)

Experiment: xn = mol fraction of the nth substance listed
Details: 318.15 K; 101 kPa; x1 = 0.0255
For each entry below, report its electrical conductivity value.
The answer is to be given in S/m; state only the numeric part.

Identify measured electrical conductivity corresponding to CCc1n(S(=O)(=O)O)cc[n+]1S(=O)(=O)O.O=C([O-])C(F)(F)F + CO
2.51

Identify measured electrical conductivity corresponding to O=C([O-])C(F)(F)F.O=S(=O)(O)n1cc[n+](S(=O)(=O)O)c1 + CO
3.52

Identify measured electrical conductivity corresponding to Cc1n(S(=O)(=O)O)cc[n+]1S(=O)(=O)O.O=C([O-])C(F)(F)F + CO
2.84

Identify measured electrical conductivity corresponding to CCCCc1n(S(=O)(=O)O)cc[n+]1S(=O)(=O)O.O=C([O-])C(F)(F)F + CO
1.91

----------
Assay: xn = mol fraction of the nth substance listed
Conditions: 298.15 K; 101 kPa; x1 = 0.0155
parameter-measured: electrical conductivity (S/m)
The answer is to be given in S/m; state only the numeric part.

Identify measured electrical conductivity corresponding to CCCCc1n(S(=O)(=O)O)cc[n+]1S(=O)(=O)O.O=C([O-])C(F)(F)F + CO
1.76

Identify measured electrical conductivity corresponding to Cc1n(S(=O)(=O)O)cc[n+]1S(=O)(=O)O.O=C([O-])C(F)(F)F + CO
2

Identify measured electrical conductivity corresponding to CCc1n(S(=O)(=O)O)cc[n+]1S(=O)(=O)O.O=C([O-])C(F)(F)F + CO
1.93

Identify measured electrical conductivity corresponding to O=C([O-])C(F)(F)F.O=S(=O)(O)n1cc[n+](S(=O)(=O)O)c1 + CO
2.85

----------
For each entry below, report its electrical conductivity value.
Test: xn = mol fraction of the nth substance listed
Conditions: 323.15 K; 101 kPa; x1 = 0.0255
The answer is to be given in S/m; state only the numeric part.

Identify measured electrical conductivity corresponding to CCCCc1n(S(=O)(=O)O)cc[n+]1S(=O)(=O)O.O=C([O-])C(F)(F)F + CO
1.73

Identify measured electrical conductivity corresponding to Cc1n(S(=O)(=O)O)cc[n+]1S(=O)(=O)O.O=C([O-])C(F)(F)F + CO
2.73

Identify measured electrical conductivity corresponding to CCc1n(S(=O)(=O)O)cc[n+]1S(=O)(=O)O.O=C([O-])C(F)(F)F + CO
2.36

Identify measured electrical conductivity corresponding to O=C([O-])C(F)(F)F.O=S(=O)(O)n1cc[n+](S(=O)(=O)O)c1 + CO
3.46

----------
Assay: xn = mol fraction of the nth substance listed
Settings: 303.15 K; 101 kPa; x1 = 0.0255
parameter-measured: electrical conductivity (S/m)
The answer is to be given in S/m; state only the numeric part.

Identify measured electrical conductivity corresponding to O=C([O-])C(F)(F)F.O=S(=O)(O)n1cc[n+](S(=O)(=O)O)c1 + CO
4.05

Identify measured electrical conductivity corresponding to Cc1n(S(=O)(=O)O)cc[n+]1S(=O)(=O)O.O=C([O-])C(F)(F)F + CO
3.01

Identify measured electrical conductivity corresponding to CCc1n(S(=O)(=O)O)cc[n+]1S(=O)(=O)O.O=C([O-])C(F)(F)F + CO
3.03

Identify measured electrical conductivity corresponding to CCCCc1n(S(=O)(=O)O)cc[n+]1S(=O)(=O)O.O=C([O-])C(F)(F)F + CO
2.45
